test system: NCI-H1975; assay: cells; type: functional, cell-based; settings: Homo sapiens, NCI-H1975, 72 h
reported_property: IC50
Quick note: number first, unit second.

Below are worked cases with known answers.
C=CC(=O)Nc1cccc(N2C(=O)C(Cc3ccccc3)N(C)C(=O)c3cnc(Nc4ccc(N5CCN(C)CC5)cc4OC)nc32)c1 (centres undefined): 89 nM
C=CC(=O)Nc1cccc(N2C(=O)C(C(C)CC)N(C)C(=O)c3cnc(Nc4ccc(N5CCN(C)CC5)cc4OC)nc32)c1 (centres undefined): 1110 nM
C=CC(=O)Nc1cccc(N2C(=O)C(C)N(C)C(=O)c3cnc(Nc4ccc(N5CCN(C)CC5)cc4OC)nc32)c1 (centres undefined): 920 nM

Please find the next compound below.
Which measured IC50 value corresponds to C=CC(=O)Nc1cccc(N2C(=O)CN(c3ccccc3)C(=O)c3cnc(Nc4ccc(N5CCN(C)CC5)cc4OC)nc32)c1 ?
9190 nM
